Some compounds, each annotated with its measured viability, T/C.
- Tested on: 966289-007-R4-J1-PDC complex spheroid viability;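 further: spheroids exposed to agents for one week before readout; percent viability relative to DMSO vehicle control wells as 100%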
- measurement_description: Anticancer human tumor 966289-007-R4-J1-PDC patient-derived pancreatic adenocarcinoma cell line growth inhibition [RAS]
- protocol_conditions: second compound 0.000949 µM; first compound 1 µM; hits give low values

compound	viability, T/C
CC1(O)CCCC1n1c(=O)c(C(F)F)cc2cnc(NC3CCN(S(C)(=O)=O)CC3)nc21 (centres undefined) + CCn1c(-c2cccnc2C(C)OC)c2c3cc(ccc31)N1CCOC(CC(NC(=O)C(C(C)C)N(C)C(=O)C3(F)CCN(C(=O)C#CC(C)(C)N(C)C)CC3)C(=O)N3CCCC(N3)C(=O)OCC(C)(C)C2)C1	24.9%
Cc1nc(N2CCC3(CC2)COC(C)C3N)c(CO)nc1Sc1ccnc(N)c1Cl (centres undefined) + CCn1c(-c2cccnc2C(C)OC)c2c3cc(ccc31)N1CCOC(CC(NC(=O)C(C(C)C)N(C)C(=O)C3(F)CCN(C(=O)C#CC(C)(C)N(C)C)CC3)C(=O)N3CCCC(N3)C(=O)OCC(C)(C)C2)C1	70.1%
O=C(c1ccc(F)c(F)c1Nc1ccc(I)cc1F)N1CC(O)([C@@H]2CCCCN2)C1 + CCn1c(-c2cccnc2C(C)OC)c2c3cc(ccc31)N1CCOC(CC(NC(=O)C(C(C)C)N(C)C(=O)C3(F)CCN(C(=O)C#CC(C)(C)N(C)C)CC3)C(=O)N3CCCC(N3)C(=O)OCC(C)(C)C2)C1	60.3%
CCN1CCN(Cc2ccc(Nc3ncc(F)c(-c4cc(F)c5nc(C)n(C(C)C)c5c4)n3)nc2)CC1 + CCn1c(-c2cccnc2C(C)OC)c2c3cc(ccc31)N1CCOC(CC(NC(=O)C(C(C)C)N(C)C(=O)C3(F)CCN(C(=O)C#CC(C)(C)N(C)C)CC3)C(=O)N3CCCC(N3)C(=O)OCC(C)(C)C2)C1	79.3%
